- target.entity: T1, estrogen receptor (ER) α as a carboxy-terminal fusion to the Gal4 activation domain (yeast, UniProt P03372 1-595, limits assumed)
- T1 sequence (looked up): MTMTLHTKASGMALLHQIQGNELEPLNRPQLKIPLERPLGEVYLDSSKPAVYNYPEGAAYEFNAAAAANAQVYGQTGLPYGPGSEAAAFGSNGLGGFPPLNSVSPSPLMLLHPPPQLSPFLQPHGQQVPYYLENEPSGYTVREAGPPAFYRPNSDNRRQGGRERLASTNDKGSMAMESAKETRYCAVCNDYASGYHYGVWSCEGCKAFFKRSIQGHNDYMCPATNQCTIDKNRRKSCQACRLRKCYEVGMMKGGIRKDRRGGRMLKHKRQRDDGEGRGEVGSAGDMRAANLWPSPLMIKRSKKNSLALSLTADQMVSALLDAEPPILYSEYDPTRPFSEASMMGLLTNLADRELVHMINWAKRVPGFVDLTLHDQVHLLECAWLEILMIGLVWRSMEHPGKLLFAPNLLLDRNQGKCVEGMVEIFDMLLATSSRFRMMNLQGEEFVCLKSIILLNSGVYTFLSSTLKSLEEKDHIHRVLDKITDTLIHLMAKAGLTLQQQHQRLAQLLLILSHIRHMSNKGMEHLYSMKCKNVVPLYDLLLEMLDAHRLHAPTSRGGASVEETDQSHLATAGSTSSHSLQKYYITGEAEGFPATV
- run.description: cell-based or functional assay
Simple rule here: fold induction of β-galactosidase by estradiol, yeast two-hybrid less than 6 fold is 1 (yes), otherwise 0 (no).

binder: B5H10 (peptide) MKLLSSIEQACDICRLKKLKCSKEKPKCAKCLKNNWECRYSPKTKRSPLTRAHLTEVESRLERLEQLFLLIFPREDLDMILKMDSLQDIKALLTGLFVQDNVNKDAVTDRLASVETDMPLTLRQHRISATSSSEESSNKGQRQLTVSEFSPPSSLLALLLGGKSLEPLPIRYKNVKRQFTSNSRGSVDLQPS
classification: 1 (yes)
--
binder: B6F3 (peptide) MKLLSSIEQACDICRLKKLKCSKEKPKCAKCLKNNWECRYSPKTKRSPLTRAHLTEVESRLERLEQLFLLIFPREDLDMILKMDSLQDIKALLTGLFVQDNVNKDAVTDRLASVETDMPLTLRQHRISATSSSEESSNKGQRQLTVSEFFRATHLLRLLRTDSALDLQPS
classification: 1 (yes)
--
binder: B6A1 (peptide) MKLLSSIEQACDICRLKKLKCSKEKPKCAKCLKNNWECRYSPKTKRSPLTRAHLTEVESRLERLEQLFLLIFPREDLDMILKMDSLQDIKALLTGLFVQDNVNKDAVTDRLASVETDMPLTLRQHRISATSSSEESSNKGQRQLTVSEFTGSRLLLKLLRFPDSSTCSQA
classification: 1 (yes)
--
binder: B1A1 (peptide) MKLLSSIEQACDICRLKKLKCSKEKPKCAKCLKNNWECRYSPKTKRSPLTRAHLTEVESRLERLEQLFLLIFPREDLDMILKMDSLQDIKALLTGLFVQDNVNKDAVTDRLASVETDMPLTLRQHRISATSSSEESSNKGQRQLTVSEFCPVGLLVHLLMQ
classification: 0 (no)
--
binder: B3E2 (peptide) MKLLSSIEQACDICRLKKLKCSKEKPKCAKCLKNNWECRYSPKTKRSPLTRAHLTEVESRLERLEQLFLLIFPREDLDMILKMDSLQDIKALLTGLFVQDNVNKDAVTDRLASVETDMPLTLRQHRISATSSSEESSNKGQRQLTVSEFGGSVLLRELLCCYDALEPTTTR
classification: 1 (yes)
--
binder: B5A2 (peptide) MKLLSSIEQACDICRLKKLKCSKEKPKCAKCLKNNWECRYSPKTKRSPLTRAHLTEVESRLERLEQLFLLIFPREDLDMILKMDSLQDIKALLTGLFVQDNVNKDAVTDRLASVETDMPLTLRQHRISATSSSEESSNKGQRQLTVSEFGCSAILRYLLRSPRDLDLQPS
classification: 1 (yes)
--
binder: B2G1 (peptide) MKLLSSIEQACDICRLKKLKCSKEKPKCAKCLKNNWECRYSPKTKRSPLTRAHLTEVESRLERLEQLFLLIFPREDLDMILKMDSLQDIKALLTGLFVQDNVNKDAVTDRLASVETDMPLTLRQHRISATSSSEESSNKGQRQLTVSEFFRLRRLDRLLQDSFLLDLQPS
classification: 0 (no)

All values here come from patent US20030224390A1.
